# ASSAY PROCEDURE: qHTS assay to identify small molecule antagonists of the estrogen related receptor signaling pathway with the pleiotropic PPARgamma coactivator (PGC) from Tox21 10K library (AID 1224841); also: actives are mostly falling curves and most rising ones were filed inactive; nearly all actives have a fitted effect of over 50% in size
# REPORTED CONDITIONS: PGC/ERR reporter cell line, ONE-Glo luciferase, 18 h; series mostly up to 92.4 µM
Results filed as inconclusive are left out. Active and inactive are the calls of the source. No rule for the calls is given here.
Choose one outcome from this list and give only that: active, inactive

For orientation, consider the following solved cases.
MOLECULE | GROUP
CC(=O)[C@H]1[C@H](C#N)C[C@H]2[C@@H]3CC=C4C[C@@H](O)CC[C@]4(C)[C@H]3CC[C@@]21C | inactive
COc1cc(C(=O)NC2CCN(C)CC2)ccc1Nc1ncc2c(n1)N(C1CCCC1)CC(F)(F)C(=O)N2C | inactive
C[C@@H]1CC(=O)NN=C1c1ccc(NN=C(C#N)C#N)cc1 | active

## Task Per the assay record, what outcome was assigned to "O=C1c2ccccc2C(=O)C1c1ccc(Br)cc1" ?
## Result inactive

## Task Given "CC(C)=CC(=O)C=C(C)C" , state the outcome it received in this test.
## Result inactive

## Task Status in this test for "CCCCCC[C@@H](O)C/C=C\CCCCCCCC(=O)O" ?
## Result inactive

## Task // outcome(item) with item = "COc1ccccc1Oc1c(NS(=O)(=O)c2ccc(C(C)(C)C)cc2)nc(-c2ncccn2)nc1OCCO"
## Result inactive

## Task // outcome(item) with item = CCCCCCCCC(CCCCCC)C(=O)O (stereo unspecified)
## Result inactive

## Task Returns: the outcome recorded for "O=C(O)c1ccc(OCCCOc2ccc(C(=O)O)cc2)cc1" in this assay.
## Result inactive

## Task // outcome(item) with item = "O=C(CCc1ccc(O)cc1)c1c(O)cc(O)cc1O"
## Result inactive

## Task Give the logged outcome of this assay for the following molecule: "O=c1cc(-c2ccccc2)oc2ccc3ccccc3c12"
## Result inactive

## Task Outcome logged for "O=C(O)CCc1nc(-c2ccccc2)c(-c2ccccc2)o1" in this assay:
## Result inactive

## Task Hi team, can someone confirm the assay call for "N#CCc1ccc(Cl)cc1Cl" ?
## Result inactive

## Task What is the recorded call for this molecule in the test? NC1[C@H]2CN(c3nc4c(cc3F)c(=O)c(C(=O)O)cn4-c3ccc(F)cc3F)C[C@@H]12 (stereo partly specified)
## Result inactive

## Task I would be grateful if you could indicate the recorded call for "CC(C)C[C@H](NC(=O)[C@H](CCc1ccccc1)NC(=O)CN1CCOCC1)C(=O)N[C@@H](Cc1ccccc1)C(=O)N[C@@H](CC(C)C)C(=O)[C@@]1(C)CO1" .
## Result active

## Task Tell me the recorded outcome of this test for "CC(C)=CCC/C(C)=C/CC/C(C)=C/CCC(=O)OC/C=C(\C)CCC=C(C)C" .
## Result inactive

## Task I would be grateful if you could indicate the recorded call for "CN(C)CCC=C1c2ccccc2C=Cc2ccccc21" .
## Result inactive

## Task Would you mind telling me which call this test gave "Cc1ccc(OC(=O)c2ccccc2O)cc1" ?
## Result inactive

## Task How was "C[C@@]12CCC[C@H]1[C@@H]1CC[C@H]3C[C@@H](O)CC[C@]3(C)[C@H]1CC2" classified in this test?
## Result inactive

## Task Test call, this molecule: "CC(C)c1nc(CN(C)C(=O)N[C@H](C(=O)N[C@@H](Cc2ccccc2)C[C@H](O)[C@H](Cc2ccccc2)NC(=O)OCc2cncs2)C(C)C)cs1"
## Result active

## Task Look up the recorded call for "CN1C(=O)OC(C)(C)C1=O" in this test.
## Result inactive
